# tested-target: mouse RORγ (Mus musculus, UniProt P51450)
# Construct: mouse RORγ, from Ile251 to Lys516; expressed in transfected cells; host or cells: CHO cells (Chinese hamster ovary), transient co-transfection with pG5-Luc
# Sequence (P51450 251-516): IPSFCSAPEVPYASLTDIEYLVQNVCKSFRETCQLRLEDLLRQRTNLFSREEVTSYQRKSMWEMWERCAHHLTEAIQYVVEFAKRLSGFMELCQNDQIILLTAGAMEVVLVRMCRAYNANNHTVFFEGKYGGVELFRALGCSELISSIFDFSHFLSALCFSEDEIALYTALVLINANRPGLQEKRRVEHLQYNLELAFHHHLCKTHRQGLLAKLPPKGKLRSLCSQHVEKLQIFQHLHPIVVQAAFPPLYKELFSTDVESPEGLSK
# test-name: In vitro assay of inhibitory effect against RORγ transcriptional activity (GAL4-mRORγ LBD luciferase reporter gene assay in CHO cells)
# Format: cell-based
# test-parameters: GAL4-mRORγ LBD / pG5-Luc in CHO cells, 2 days incubation
outcome-measure: pEC50
Convention used: pEC50 is expressed as -log10 of the molar concentration.

Solved cases below.
{"molecule": "COCCN1C=C([C@H]2C[C@@H](C(=O)O)C2)C(C)(c2ccc(CCC(C)(C)C)c(Cl)c2)NC1=O (single isomer, unassigned)", "tested-target": "mouse RORγ (Mus musculus, UniProt P51450)", "outcome-measure": "pEC50", "measured-number": 7.74}
{"molecule": "CC(C)C1=CN(CCC(=O)O)C(=O)NC1(C)c1ccc(C2=CC(C)(C)CCC2)c(Cl)c1 (single isomer, unassigned)", "tested-target": "mouse RORγ (Mus musculus, UniProt P51450)", "outcome-measure": "pEC50", "measured-number": 7.64}

## Input Read off the recorded pEC50 for CC(C)C1=CN(CCc2ccc(C(=O)O)cc2)C(=O)N[C@]1(C)c1ccc(CCC(C)(C)C)c(Cl)c1
## Output 6.08

## Input Read off the recorded pEC50 for CC(C)C1=CN(CC2(C(=O)O)CC2)C(=O)N[C@@]1(C)c1ccc(CCC(C)(C)C)c(Cl)c1
## Output 7.74

## Input Read off the recorded pEC50 for CC(C)(C)CCc1ccc(C2(C)NC(=O)N([C@H]3C[C@H](C(=O)O)C3)C=C2C(C)(C)CCCO)cc1Cl (single isomer, unassigned)
## Output 7.30

## Input Read off the recorded pEC50 for CC(C)C1=CN(CCC(=O)O)C(=O)N[C@@]1(C)c1ccc(COC(C)(C)C)c(Cl)c1
## Output 7.52

## Input Read off the recorded pEC50 for CC(C)C1=CN(CCC(=O)O)C(=O)N[C@@]1(C)c1ccc(C2CC2C(C)C)c(Cl)c1 (single isomer, unassigned)
## Output 7.96
